Reported values of pEC50 for individual entries
System: HRV-14
Assay: Antirhinoviral H1-HeLa cell culture assay, HRV-14
Format: cell-based, human rhinovirus
Conditions: Rhinovirus B, HRV14, H1-HeLa, Table 3; HRV serotype-14; H1-HeLa cells; XTT; read-out: EC50
# pEC50 is unitless: minus log10 of the molar concentration; print number only

Consider the reported pEC50 for these molecules:
Cc1cc(C(=O)N[C@H](C(=O)C[C@@H](Cc2ccc(F)cc2)C(=O)N[C@H](/C=C2\CCOC2=O)C[C@@H]2CCNC2=O)C(C)C)no1 ... 6.74
CCOC(=O)/C=C/[C@H](CCC(N)=O)NC(=O)[C@H](Cc1ccccc1)NC(=O)[C@H](CC(C)C)NC(=O)c1cc(C)on1 ... 6.60
CCOC(=O)/C=C/[C@H](CCC(N)=O)NC(=O)[C@H](Cc1ccc(F)cc1)N(C)C(=O)[C@H](CC(C)C)NC(=O)c1cc(C)on1 ... 6.40
CCOC(=O)/C=C/[C@H](CCC(N)=O)NC(=O)[C@H](Cc1ccc(F)cc1)OC(=O)[C@@H](NC(=O)c1cc(C)on1)C(C)C ... 7.00
CCOC(=O)/C=C/[C@H](CCC(N)=O)NC(=O)[C@H](Cc1ccccc1)NC(=O)[C@@H](NC(=O)c1cccs1)C(C)(C)C ... 6.32

Next up:
Data point: "CCOC(=O)/C=C/[C@H](C[C@@H]1CCCNC1=O)NC(=O)[C@H](Cc1ccccc1)NC(=O)[C@H](CC(C)C)NC(=O)OCc1ccccc1" ; pEC50 = 7.52

----------
Tested on: HRV (89)
Assay: Antirhinoviral H1-HeLa cell culture assay, HRV serotype 89
Format: cell-based, human rhinovirus
Details: H1-HeLa cells, XTT
Procedure: In this cell protection assay, the ability of compounds to protect cells against HRV infection was measured by the XTT dye reduction method, which is described in Weislow et al., J. Natl. Cancer Inst. 1989, vol. 81, 577-586. H1-HeLa cells were infected with HRV-14 at a multiplicity of infection (m.o.i.) of 0.13 (virus particles/cell) or mock-infected with medium only. […] The therapeutic index (TI) was calculated by dividing the CC50 value by the EC50 value. […]
Measured Parameter: pEC50
# pEC50: negative log10 of molar concentration; output just the value

Lookup result for "CCOC(=O)/C=C/[C@H](C[C@@H]1CCNC1=O)NC(=O)[C@H](Cc1ccc(F)cc1)NC(=O)[C@@H](NC(=O)c1cc(C)on1)C(C)(C)C" ; measured pEC50: 7.70

----------
Tested on: HRV (13)
Assay: Antirhinoviral H1-HeLa cell culture assay, HRV serotype 13
Assay type: cell-based, human rhinovirus
Conditions: H1-HeLa cells, XTT
Measured Parameter: pEC50
Expect pEC50 as a plain number equal to -log10 of the molar concentration.

// "CCOC(=O)/C=C/[C@H](C[C@@H]1CCNC1=O)NC(=O)[C@H](Cc1ccc(F)cc1)NC(=O)[C@@H](NC(=O)c1cc(C)on1)C(C)(C)C" : pEC50 value = 7.52

----------
System: HRV (89)
Assay: Antirhinoviral H1-HeLa cell culture assay, HRV serotype 89
Assay type: cell-based, human rhinovirus
Conditions: Human rhinovirus sp., H1-HeLa cells, XTT
Below, each of the molecules is paired with its reported pEC50 value.
Field pEC50 (float): negative decimal logarithm of the concentration in molar.

CCOC(=O)/C=C/[C@H](C[C@@H]1CCNC1=O)NC(=O)[C@H](Cc1ccc(F)cc1)OC(=O)[C@@H](NC(=O)c1cc(C)on1)C(C)C [Compound C-2] ... 8.40
CCOC(=O)/C=C/[C@H](CCC(N)=O)NC(=O)[C@H](Cc1ccccc1)NC(=O)[C@H](CC(C)C)NC(=O)c1cc(C)on1 [Compound A-1] ... 6.66
CCOC(=O)/C=C/[C@H](C[C@@H]1CCNC1=O)NC(=O)[C@@H](CC(=O)[C@@H](NC(=O)c1cc(C)on1)C(C)C)Cc1ccc(F)cc1 [Compound B-2] ... 8.05

Please turn your attention to the following entry.
pEC50 in this record for CCOC(=O)/C=C/[C@H](CCC(N)=O)NC(=O)[C@H](Cc1ccccc1)NC(=O)[C@H](CC(C)C)NC(=O)OCc1ccccc1 [Comparison Compound #2, reference compound] : 5.20
